MEASUREMENT_LABEL: melting point

Sample answers from the record:
Fill in: melting point of CN(C)C(=O)C(=O)c1ccc(-c2noc(C(F)(F)F)n2)s1 is ___
88.4 to 89.4 °C

Another compound: O=C(NC1CC1)C(=O)c1ccc(-c2noc(C(F)(F)F)n2)s1
122.1 to 126.7 °C

Another compound: COCCNC(=O)C(=O)c1ccc(-c2noc(C(F)(F)F)n2)s1
106 to 107.1 °C

Another compound: O=C(NCc1ccccc1Cl)C(=O)c1ccc(-c2noc(C(F)(F)F)n2)s1
94 to 95.2 °C

Another compound: CNC(=O)C(=O)c1ccc(-c2noc(C(F)(F)F)n2)s1
96.2 to 98.7 °C

Another compound: CONC(=O)C(=O)c1ccc(-c2noc(C(F)(F)F)n2)s1
109.7 to 112.1 °C

More entries:
Fill in: melting point of CCNC(=O)C(=O)c1ccc(-c2noc(C(F)(F)F)n2)s1 is ___
142.7 to 144.6 °C
